Target: PXR (NR1I2); CYP3A4 promoter reporter (Homo sapiens)
Sequence (O75469 whole entry): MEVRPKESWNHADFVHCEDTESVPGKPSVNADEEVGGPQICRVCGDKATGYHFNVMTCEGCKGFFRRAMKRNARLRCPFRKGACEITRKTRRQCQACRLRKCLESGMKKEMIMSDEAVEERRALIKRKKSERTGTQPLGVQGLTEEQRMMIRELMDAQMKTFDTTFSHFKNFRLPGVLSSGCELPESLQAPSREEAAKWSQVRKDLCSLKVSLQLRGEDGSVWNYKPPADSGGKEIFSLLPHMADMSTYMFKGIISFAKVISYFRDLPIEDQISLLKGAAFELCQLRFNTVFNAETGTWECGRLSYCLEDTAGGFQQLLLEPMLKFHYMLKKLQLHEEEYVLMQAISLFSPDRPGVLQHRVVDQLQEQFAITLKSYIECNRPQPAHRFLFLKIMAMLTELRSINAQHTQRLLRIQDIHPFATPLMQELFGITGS
Assay: Agonist activity at human PXR transfected in human HEK293T cells co-transfected with CYP3A4-Luc plasmid at 10 uM incubated for 24 hrs by dual-luciferase reporter gene assay relative to control
Property name: fold induction at 24 h, 10 µM

Smiles string: CC(=O)O[C@@H]1[C@H]2[C@@H](OC(=O)c3ccccc3)[C@@H](C)C[C@]2(OC(C)=O)C(=O)/C(C)=C/[C@@H]2[C@H](CC[C@H]1C)C2(C)C
Test target: PXR (NR1I2); CYP3A4 promoter reporter (Homo sapiens)
Observed: 4.9

(1) CC(=O)O[C@H]1[C@@H](C)[C@H](OC(=O)c2ccccc2)C[C@H]2[C@@H](C[C@@H](C)C(=O)[C@@]3(OC(C)=O)C[C@H](C)[C@H](OC(=O)c4ccccc4)[C@H]13)C2(C)C
(2) C=C1[C@H](OC(=O)c2cccnc2)C[C@H]2[C@@H](/C=C(\C)C(=O)[C@@]3(OC(C)=O)C[C@H](C)[C@H](OC(=O)c4ccccc4)[C@@H]3[C@H]1OC(C)=O)C2(C)C
Higher fold induction at 24 h, 10 µM between 1 and 2 ? Answer format: the label of the selected item.
2

====

system: HEK-293T; assay: Cytotoxicity against human HEK293T cells assessed as reduction in cell viability at 10 uM measured after 24 hrs by CCK8 assay; type: cell-based
Property name: Activity

For orientation, consider the following solved cases.
Smiles string: CC(=O)O[C@@H]1[C@H]2[C@@H](OC(=O)c3ccccc3)[C@@H](C)C[C@]2(OC(C)=O)C(=O)[C@@]2(C)O[C@@H]2[C@@H]2[C@H](C[C@@H](OC(=O)c3ccccc3)[C@]13CO3)C2(C)C
Property name: Activity
Observed: Non-Toxic

Smiles string: C=C1[C@H](OC(=O)c2ccco2)C[C@H]2[C@@H](/C=C(\C)C(=O)[C@@]3(O)C[C@H](C)[C@H](O)[C@@H]3[C@H]1O)C2(C)C
Property name: Activity
Observed: Non-Toxic

Smiles string: C=C1CC[C@H](C(C)(C)OC)/C=C/C(C)=C\[C@@]2(O)C[C@H](C)[C@H](OC(=O)c3ccccc3)[C@@H]2[C@H]1OC(C)=O
Property name: Activity
Observed: Non-Toxic

Smiles string: CC(=O)O[C@]12C[C@H](C)[C@H](OC(=O)c3ccccc3)[C@@H]1/C=C(\CO)C(=O)C[C@H]1[C@@H](/C=C(\C)C2=O)C1(C)C
Property name: Activity
Observed: Non-Toxic

Smiles string: C=C1CC[C@H]2[C@@H](/C=C(\C)C(=O)[C@@]3(OC(C)=O)C[C@H](C)[C@H](OC(=O)/C=C/c4ccccc4)[C@@H]3[C@H]1OC(C)=O)C2(C)C
Property name: Activity
Observed: Non-Toxic

Smiles string: C=C1CC[C@H]2[C@@H](/C=C(\C)C(=O)[C@@]3(OC(C)=O)C[C@H](C)[C@H](OC(=O)/C=C/c4ccccc4)[C@@H]3[C@H]1O)C2(C)C
Property name: Activity
Observed: Toxic

For record C=C1CC[C@H]2[C@@H](/C=C(\C)C(=O)[C@@]3(OC(C)=O)C[C@H](C)[C@H](OC(=O)c4ccccc4)[C@@H]3[C@H]1OC(C)=O)C2(C)C the listed Activity is Non-Toxic

compound C=C1CC[C@H]2[C@@H](/C=C(\C)C(=O)[C@@]3(O)C[C@H](C)[C@H](O)[C@@H]3C1=O)C2(C)C , Activity observed: Toxic

C=C1[C@H](OC(=O)c2cccnc2)C[C@H]2[C@@H](/C=C(\C)C(=O)[C@@]3(OC(C)=O)C[C@H](C)[C@H](OC(=O)c4ccccc4)[C@@H]3[C@H]1OC(C)=O)C2(C)C has a reported Activity of Non-Toxic

Field Activity (entry C=C1CC[C@H](C(C)(C)O)/C=C/C(C)=C\[C@@]2(O)C[C@H](C)[C@H](OC(=O)c3ccccc3)[C@@H]2[C@H]1OC(C)=O ) reads Non-Toxic

Memo: C=C1[C@H](O)C[C@H]2[C@@H](/C=C(\C)C(=O)[C@@]3(O)C[C@H](C)[C@H](O)[C@@H]3[C@H]1O)C2(C)C , reported Activity: Non-Toxic
